Assignment: determine reported self-cleavage for the given variants.
B1: Osa-1-4 twister ribozyme (parent)
chain: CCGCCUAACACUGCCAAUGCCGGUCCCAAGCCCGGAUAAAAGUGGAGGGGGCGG

# Variants of: B1
# protocol_notes: self-cleavage, relative activity (ratio to wild type); higher = more cleavage; co-transcriptional
Numbers only.

Consider the reported self-cleavage for these variants:
CCGCCUAACACUGCCAAUGCCGGUCCCAAGCCCGGAUAAAAAUGGAGGGGGCGG [G42A] : 0.84
CCGCCUAACACUGCAAGUGCCGGUCCCAAGCCCGGAUAAAAGUGGAGGGGGCGG [A17G C15A] : 0.78
CCGCCUAACACUGAAAAUGCCGGUCCCAAGCCCGGAUAAAAGUGGAGGGGGCGG [C14A C15A] : 0.07
CCGCCUAGCACUGCCAAUGCCGGUCCCAAGCCCGGAUCAAAGUGGAGGGGGCGG [A38C A8G] : 0.53
CCGCCUAACACUGCCAAUGCCGGUCCCAAGGCCGGAUAAAAGUGGAGAGGGCGG [C31G G48A] : 0.03
CCGCCUAAUACUGCCAAUGCCGGUCCCAAGCCGGGAUAAAAGUGGAGGGGGCGG [C33G C9U] : 0.04
CCGCCUAACACUGCCAAUGCCGGUCCCAAGCCCGGUUAAAAGUGGAGGGAGCGG [A36U G50A] : 0.87
CCGCCUAACACUGCCAAUGCCGAUCCUAAGCCCGGAUAAAAGUGGAGGGGGCGG [C27U G23A] : 0.07

Please report self-cleavage for every entry that follows.
1. CCGCCUAACACUGCCAUUGCCGGUCCCAAGCCCGGAUAAAAGUGGAAGGGGCGG [A17U G47A]
2. CCGCCUAACAGUGCCAAUGCCGGUCCCAAGGCCGGAUAAAAGUGGAGGGGGCGG [C11G C31G]
3. CCGCCUAACACUGCCAAUGCCGGUCCCAAGCCCGGAUAAAUUUGGAGGGGGCGG [A41U G42U]
4. CCGCCUAACACUGCCAAUGCCGGUGCCUAGCCCGGAUAAAAGUGGAGGGGGCGG [A28U C25G]
5. CCGCCUAACACUGUCAAUGCCGGUCCCAAGCCCGGAUAAAAGUAGAGGGGGCGG [C14U G44A]
6. CCGCCUAACACUGCUAAUGCCGGUCCCUAGCCCGGAUAAAAGUGGAGGGGGCGG [A28U C15U]
7. CCGCCUAACACUGCCAAUCCCGGUCCCAAGCCCGGAUAAAAGUGGAGGGGGCCG [G19C G53C]
8. CCGCCUAACACUGCCAAUGCCGGACCCAAGCCCGGAUGAAAGUGGAGGGGGCGG [A38G U24A]

[reply]
1. 0.47
2. 0.04
3. 0.15
4. 0.05
5. 0.59
6. 0.1
7. 0.04
8. 0.16

Where these numbers come from: the RNAGym collection of RNA variant scans (doi:10.1002/anie.201605470)
